experiment: AUC in rat at 0.5 mg/kg, iv; assay type: ADME, organism-based; parameters: dose 0.5 mg/kg, route intravenous; settings: plasma
I'd appreciate it if you could supply AUC values for the items below.
Numbers only here, please. The scale is ng·h/mL.

q: Please report the measured AUC for CC1=C(/C=C/C(C)=C/C=C/C(C)=C/C(=O)Nc2ccc(O)cc2)C(C)(C)CCC1 [FENRETINIDE]
a: 1660

q: Please report the measured AUC for "O=C(O)c1ccccc1NC(=O)N1CCN(c2ncccc2C(F)(F)F)CC1"
a: 5080

q: Please report the measured AUC for "O=C(O)c1ccccc1NC(=O)N1CCC(c2ccccc2C(F)(F)F)CC1"
a: 10700

---

I'd appreciate it if you could supply AUC values for the items below.
assay: AUC in mouse at 5 mg/kg, po; format: ADME, organism-based; parameters: dose 5 mg/kg, route oral; conditions: plasma
Numbers only here, please. The scale is ng·h/mL.

q: Please report the measured AUC for "O=C(O)c1ccccc1NC(=O)N1CCC(c2ccccc2C(F)(F)F)CC1"
a: 17200

q: Please report the measured AUC for "O=C(O)c1ccccc1NC(=O)N1CCN(c2ncccc2C(F)(F)F)CC1"
a: 3650

---

experiment: AUC in mouse at 30 mg/kg, po; format: ADME, organism-based; parameters: dose 30 mg/kg, route oral; settings: plasma
endpoint: AUC (ng·h/mL)
Numbers only here, please. The scale is ng·h/mL.

q: Please report the measured AUC for CC1=C(/C=C/C(C)=C/C=C/C(C)=C/C(=O)Nc2ccc(O)cc2)C(C)(C)CCC1 [FENRETINIDE]
a: 1210

---

I'd appreciate it if you could supply MRT values for the items below.
experiment: Mean residence time in mouse at 5 mg/kg, po; type: ADME, organism-based; parameters: dose 5 mg/kg, route oral; conditions: in vivo
Numbers only here, please. The scale is h.

q: Please report the measured MRT for "O=C(O)c1ccccc1NC(=O)N1CCC(c2ccccc2C(F)(F)F)CC1"
a: 5.4

q: Please report the measured MRT for "O=C(O)c1ccccc1NC(=O)N1CCN(c2ncccc2C(F)(F)F)CC1"
a: 3.2

---

experiment: Mean residence time in mouse at 30 mg/kg, po; format: ADME, organism-based; set-up: dose 30 mg/kg, route oral; conditions: in vivo
endpoint: MRT (h)
Numbers only here, please. The scale is h.

q: Please report the measured MRT for CC1=C(/C=C/C(C)=C/C=C/C(C)=C/C(=O)Nc2ccc(O)cc2)C(C)(C)CCC1 [FENRETINIDE]
a: 35

---

I'd appreciate it if you could supply clearance values for the items below.
assay: Clearance in rat at 0.5 mg/kg, iv; format: ADME, organism-based; design: dose 0.5 mg/kg, route intravenous; details: in vivo
Numbers only here, please. The scale is mL/min/kg.

q: Please report the measured clearance for "O=C(O)c1ccccc1NC(=O)N1CCC(c2ccccc2C(F)(F)F)CC1"
a: 0.0833

q: Please report the measured clearance for CC1=C(/C=C/C(C)=C/C=C/C(C)=C/C(=O)Nc2ccc(O)cc2)C(C)(C)CCC1 [FENRETINIDE]
a: 5

q: Please report the measured clearance for "O=C(O)c1ccccc1NC(=O)N1CCN(c2ncccc2C(F)(F)F)CC1"
a: 1.67

// provenance: ChEMBL document CHEMBL3286122
